Biological target: human Cereblon WT GST-tagged protein (Homo sapiens, UniProt Q96SW2)
Construct: purchased CISBIO 64BDCRBNPEH
Sequence (Q96SW2 whole entry): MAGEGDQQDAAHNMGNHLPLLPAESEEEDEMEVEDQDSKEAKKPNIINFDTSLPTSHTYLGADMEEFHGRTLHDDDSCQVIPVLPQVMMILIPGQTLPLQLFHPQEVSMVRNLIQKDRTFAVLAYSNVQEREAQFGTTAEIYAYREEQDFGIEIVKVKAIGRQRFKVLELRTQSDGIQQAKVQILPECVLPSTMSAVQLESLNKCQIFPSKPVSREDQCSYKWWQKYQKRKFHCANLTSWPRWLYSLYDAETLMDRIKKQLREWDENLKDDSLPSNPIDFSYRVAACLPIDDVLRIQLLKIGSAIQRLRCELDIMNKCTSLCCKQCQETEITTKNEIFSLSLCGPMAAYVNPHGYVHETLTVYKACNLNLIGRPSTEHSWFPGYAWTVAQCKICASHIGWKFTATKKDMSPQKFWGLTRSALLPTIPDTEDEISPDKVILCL
Assay: CRBN-binding affinity, HTRF (CEREBLON BINDING kit)
Details: read-out: Inhibition Rate at 0.5 µM (%)
Overview of recorded inhibition at 0.5 µM for various compounds

Some solved cases for reference:
O=C1CCC(N2Cc3cc(CN4CCN(c5noc6cc(F)ccc56)CC4)ccc3C2=S)C(=O)N1 (stereo not shown) : 60 to 80%
O=C1CCC(N2Cc3cc(CN4CCN(c5ncnc6sc(Br)cc56)CC4)ccc3C2=S)C(=O)N1 (stereo not shown) : 80 to 100%

Inquiry: Give the reported value of inhibition at 0.5 µM for this record: Cc1ccc(N2CCN(Cc3cccc4c3CN(C3CCC(=O)NC3=O)C4=S)CC2)cc1 (stereo not shown)
Reply text: 30 to 40%

Inquiry: Give the reported value of inhibition at 0.5 µM for this record: Cn1cc(C2=CCN(Cc3cccc4c3CN(C3CCC(=O)NC3=O)C4=S)CC2)c2ccc(F)cc21 (stereo not shown)
Reply text: 40 to 53%

Inquiry: Give the reported value of inhibition at 0.5 µM for this record: O=C1CCC(N2Cc3c(CN4CCC(N5C(=O)COc6cc(F)ccc65)CC4)cccc3C2=S)C(=O)N1 (stereo not shown)
Reply text: 60 to 80%

Inquiry: Give the reported value of inhibition at 0.5 µM for this record: COc1ccccc1N1CCN(Cc2ccc3c(c2)CN(C2CCC(=O)NC2=O)C3=S)CC1 (stereo not shown)
Reply text: 40 to 53%

Inquiry: Give the reported value of inhibition at 0.5 µM for this record: O=C1CCC(N2Cc3c(CN4CC5CCC4CN5C(c4ccccc4)c4ccccc4)cccc3C2=S)C(=O)N1 (stereo not shown)
Reply text: 53 to 60%

Inquiry: Give the reported value of inhibition at 0.5 µM for this record: O=C1CCC(N2Cc3c(CN4CCN(c5nccc(F)c5F)CC4)cccc3C2=S)C(=O)N1 (stereo not shown)
Reply text: 53 to 60%

Inquiry: Give the reported value of inhibition at 0.5 µM for this record: O=C1CCC(N2Cc3c(CN4CCC(c5cccc(Br)c5)CC4)cccc3C2=S)C(=O)N1 (stereo not shown)
Reply text: 40 to 53%

Inquiry: Give the reported value of inhibition at 0.5 µM for this record: O=C1CCC(N2Cc3cc(CN4CCN(c5ncnc6sc(-c7ccccc7)cc56)CC4)ccc3C2=S)C(=O)N1 (stereo not shown)
Reply text: 60 to 80%

Inquiry: Give the reported value of inhibition at 0.5 µM for this record: O=C1CCC(N2Cc3c(CN4CCN(c5ncnc(Cl)c5Cl)CC4)cccc3C2=S)C(=O)N1 (stereo not shown)
Reply text: 60 to 80%

Inquiry: Give the reported value of inhibition at 0.5 µM for this record: O=C1CCC(N2Cc3cc(CN4CCN(C(c5ccccc5)c5ccncc5)CC4)ccc3C2=S)C(=O)N1 (stereo not shown)
Reply text: 60 to 80%

Inquiry: Give the reported value of inhibition at 0.5 µM for this record: O=C1CCC(N2Cc3cc(CN4CCC(c5ncnc6sc(-c7ccccc7)cc56)CC4)ccc3C2=S)C(=O)N1 (stereo not shown)
Reply text: 40 to 53%

Inquiry: Give the reported value of inhibition at 0.5 µM for this record: O=C1CCC(N2Cc3c(CN4CC=C(c5ccsc5)CC4)cccc3C2=S)C(=O)N1 (stereo not shown)
Reply text: 40 to 53%

Inquiry: Give the reported value of inhibition at 0.5 µM for this record: O=C1CCC(N2Cc3c(CN4CCN(c5ccc(F)cc5F)CC4)cccc3C2=S)C(=O)N1 (stereo not shown)
Reply text: 40 to 53%

Inquiry: Give the reported value of inhibition at 0.5 µM for this record: O=C1CCC(N2Cc3c(CN4CCC(c5ncnc6sccc56)CC4)cccc3C2=S)C(=O)N1 (stereo not shown)
Reply text: 60 to 80%

Origin of measurements: patent EP4745135A1
